Experiment: Water solubility (exploratory, 10 mM Tris-HCl, 20 °C)
Format: physicochemical
Conditions: water (10 mM Tris-HCl buffer), pH 7.4
Task for the reader: assign each of the following molecules its reported Solubility.

Value of Solubility reported for the molecule O=C([O-])CN1CCN(CC(=O)[O-])CCN(CC(=O)N(CC(=O)NCC(CNC(=O)CN(Cc2ccccc2)C(=O)CN2CCN(CC(=O)[O-])CCN(CC(=O)[O-])CCN(CC(=O)[O-])CC2)(CNC(=O)CN(Cc2ccccc2)C(=O)CN2CCN(CC(=O)[O-])CCN(CC(=O)[O-])CCN(CC(=O)[O-])CC2)CNC(=O)CN(Cc2ccccc2)C(=O)CN2CCN(CC(=O)[O-])CCN(CC(=O)[O-])CCN(CC(=O)[O-])CC2)Cc2ccccc2)CCN(CC(=O)[O-])CC1.[Gd+3].[Gd+3].[Gd+3].[Gd+3] is >1000 mg/100 mL

Value of Solubility reported for the molecule CC(C)N(CC(=O)NCC(CNC(=O)CN(C(=O)CN1CCN(CC(=O)[O-])CCN(CC(=O)[O-])CCN(CC(=O)[O-])CC1)C(C)C)(CNC(=O)CN(C(=O)CN1CCN(CC(=O)[O-])CCN(CC(=O)[O-])CCN(CC(=O)[O-])CC1)C(C)C)CNC(=O)CN(C(=O)CN1CCN(CC(=O)[O-])CCN(CC(=O)[O-])CCN(CC(=O)[O-])CC1)C(C)C)C(=O)CN1CCN(CC(=O)[O-])CCN(CC(=O)[O-])CCN(CC(=O)[O-])CC1.[Gd+3].[Gd+3].[Gd+3].[Gd+3] is >1000 mg/100 mL
